All values here come from PubChem BioAssay (NCI).

Provide the recorded TGI for the entries that follow.
system: UO-31 renal; assay: NCI tumour cell line growth inhibition, 48 h

Below: 5 compounds and their reported TGI.
C/C(=N/NC(=O)C(N)=O)C(CC(C(=O)Nc1ccccc1C)/C(C)=N\NC(=O)C(N)=O)C(=O)Nc1ccccc1C (stereo not drawn)    > 100 µM
CC(C)=CC(=O)OC1C2C(C)C(=O)OC2C(O)C(C)C2C=CC(=O)C21C (stereo not drawn)    10.5 µM
CCCCNC(=O)Nc1c(C(N)=O)c2n(c1C(=O)OCC)CCCCC2    > 100 µM
CC1=CCC[C@@H]2[C@@](C)(Cc3cc(O)ccc3O)[C@H](C)CC[C@@]12C    12.8 µM
N#CN1CCC[C@H]1C(=O)N1CCc2c(-c3[nH]nc4ncccc34)cccc21    5.11 µM

Value sought for every listed compound: TGI.
1. CCN(CC)CCCC(Nc1c2ccc(Cl)cc2nc2ccc(OC)cc12)c1ccc(F)cc1 (stereo not drawn)
2. NC(=O)C(NC=O)c1ccccc1 (stereo not drawn)
3. C=C(CS(=O)(=O)c1ccccc1)[P+](c1ccccc1)(c1ccccc1)c1ccccc1
4. CCOP(=O)(OCC)C(Cc1ccc(OC)c(OC)c1)N=C(c1ccccc1)c1ccccc1 (stereo not drawn)
5. CC1(C)C2CCC3(OCCO3)C1C1OC12 (stereo not drawn)
6. C#CCNC(=O)CC[C@]1(C)[C@H]2CC[C@@H]3[C@@H]([C@@](C)(O)CCC=C(C)C)CC[C@@]3(C)[C@]2(C)CC[C@H]1C(=C)C
7. CCOc1ccc2c(ccc(/C=C\c3cc(C)c4cccnc4c3O)[n+]2C)c1
8. N#Cc1c(-c2ccccc2)cc(-c2ccccc2)n(CCCCC(=O)NO)c1=O

a:
["3.15 µM", "> 100 µM", "94.3 µM", "> 100 µM", "> 100 µM", "29.1 µM", "35.1 µM", "3.47 µM"]

Value sought for every listed compound: TGI.
1. CCn1c(=O)ccc2ccc(N(CCO)CCO)nc21
2. COc1cc(C(N)=O)cc(NC(=O)/C=C/c2ccccc2)c1OC
3. CC1(C)CCc2cc3c(-c4ccccc4)cc(=O)oc3cc2O1
4. COC(=O)Nc1nc2cc3c(cc2s1)OCCO3
5. CN(C)CC(CO)(CN(C)C)CN(C)C
6. C=C1C(=O)O[C@@H]2C[C@@H]1CC[C@@]1(C)O[C@@H]1CC[C@@]1(C)O[C@@H]1CC[C@@]2(C)O
7. Cc1cc(-c2nc(-c3ccc(OC(F)(F)F)cc3)no2)nn1Cc1ccnc(N2CCN(C3CC3)CC2)c1

a:
> 100 µM
> 100 µM
> 100 µM
> 50 µM
> 100 µM
> 100 µM
> 100 µM

Value sought for every listed compound: TGI.
1. CCC[CH2][Sn]([CH2]CCC)([O]C(=O)c1nccnc1N)[O]C(=O)c1nccnc1N
2. COc1c(CNC(=O)CCl)cc2[nH]c(C)cc2c1CNC(=O)CCl
3. COc1ccc2c(c1)nc1n2C(c2c(F)cccc2Cl)SC1 (stereo not drawn)
4. O=C(/C=C(\Nc1ccccc1O)c1ccccc1)C(=O)NC12CC3CC(CC(C3)C1)C2

a:
1: 2.77 µM; 2: 56.7 µM; 3: > 100 µM; 4: > 10 µM

Value sought for every listed compound: TGI.
1. COc1ccc(C2=C(c3cc(OC)c(OC)c(OC)c3)C(=O)CC2)cc1
2. COc1ccc(C2ON(c3ccccn3)CC=C2C)cc1 (stereo not drawn)

a:
1: > 100 µM; 2: > 100 µM

Value sought for every listed compound: TGI.
1. C[C@@H](NC(=O)OC1C=CC2(CC1)C(=O)N(C)c1ccccc12)c1cccc2ccccc12 (stereo partly drawn)
2. COC(=O)C(Cc1ccccc1I)C1=CCC2(CC1)OCCO2 (stereo not drawn)
3. CCN1CC2=C(NC(=S)NC2c2cc(OC)c(OC)c(OC)c2)/C(=C/c2cc(OC)c(OC)c(OC)c2)C1 (stereo not drawn)
4. C[C@]12C=CC(=O)C=C1CC[C@@H]1[C@@H]2C(=O)C[C@@]2(C)[C@H]1CC[C@]2(O)C(=O)CO

a:
1: > 25 µM; 2: 66.3 µM; 3: 67.7 µM; 4: > 100 µM

Value sought for every listed compound: TGI.
1. CC1(C)C[C@H]2C=C(C=O)[C@]34C[C@]3(C(=O)OC4O)[C@H]2C1 (stereo partly drawn)
2. C#COc1cccc(Nc2ncnc3ncc(NC(=O)CCl)cc23)c1
3. COC(=O)NN=C(c1ccc(Cl)cc1)c1ccc(Cl)cc1

a:
6.92 µM
> 33.2 µM
> 100 µM
